# key: entry, value: IC50
test-target: Pbs2 (Saccharomyces cerevisiae, UniProt P08018, M435A)
Construct: GST fusion (pGEX-4T1) from E. coli DH5alpha
Sequence (P08018 whole entry M435A, the tested form may be a part): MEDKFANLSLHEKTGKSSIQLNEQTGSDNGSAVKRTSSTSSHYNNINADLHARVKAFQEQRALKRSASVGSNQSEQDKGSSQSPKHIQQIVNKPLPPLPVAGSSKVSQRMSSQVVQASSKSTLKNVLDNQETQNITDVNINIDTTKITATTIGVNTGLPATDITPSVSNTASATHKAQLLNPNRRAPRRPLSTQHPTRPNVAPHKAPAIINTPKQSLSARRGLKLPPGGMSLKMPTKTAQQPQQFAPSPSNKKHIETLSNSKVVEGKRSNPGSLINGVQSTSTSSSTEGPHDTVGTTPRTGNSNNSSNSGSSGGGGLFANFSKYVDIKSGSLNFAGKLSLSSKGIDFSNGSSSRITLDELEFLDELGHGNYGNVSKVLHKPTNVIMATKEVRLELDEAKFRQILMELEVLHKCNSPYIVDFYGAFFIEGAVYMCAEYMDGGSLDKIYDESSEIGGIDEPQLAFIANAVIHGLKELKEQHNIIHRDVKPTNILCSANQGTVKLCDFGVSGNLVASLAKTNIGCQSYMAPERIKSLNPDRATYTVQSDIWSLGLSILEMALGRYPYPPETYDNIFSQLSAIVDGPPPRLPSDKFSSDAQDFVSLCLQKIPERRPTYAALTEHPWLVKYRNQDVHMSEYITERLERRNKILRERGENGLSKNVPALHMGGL
assay-info: […] kinase assay, Hog1 phosphorylation, autoradiography

[[record]]
compound = "CC(C)n1nc(C#Cc2ccccc2)c2c(N)ncnc21 [6a]"
metric = "IC50"
meas_value = "4.02 nM"


Please examine the following record next.
Record for CC(C)(C)n1nc(Cc2cccc3ccccc23)c2c(N)ncnc21 [compound 9, 1-NM-PP1] under target or system Pbs2 (Saccharomyces cerevisiae, UniProt P08018, M435A): IC50 reported as 7.54 nM

* * *

# key: entry, value: IC50
test-target: Hog1 (Saccharomyces cerevisiae, UniProt P32485, T100G)
Construct: pGEX-4T1 E. coli version also made
Sequence (P32485 2-435 T100G): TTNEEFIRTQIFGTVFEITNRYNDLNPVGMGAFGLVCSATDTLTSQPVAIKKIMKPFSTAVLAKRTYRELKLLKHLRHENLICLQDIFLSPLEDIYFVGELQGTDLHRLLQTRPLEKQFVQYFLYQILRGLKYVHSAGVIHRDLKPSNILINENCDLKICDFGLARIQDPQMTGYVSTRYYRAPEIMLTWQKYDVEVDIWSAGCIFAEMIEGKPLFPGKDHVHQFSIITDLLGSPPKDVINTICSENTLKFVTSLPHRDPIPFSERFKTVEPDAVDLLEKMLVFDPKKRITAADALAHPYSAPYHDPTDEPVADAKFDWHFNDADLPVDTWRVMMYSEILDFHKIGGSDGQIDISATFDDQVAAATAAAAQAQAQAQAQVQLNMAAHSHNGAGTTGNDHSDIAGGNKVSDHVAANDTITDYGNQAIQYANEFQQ
assay-info: […] kinase assay, Sic1 phosphorylation, autoradiography
# value in µM; strip the unit string

[[record]]
molecule = "CC(C)n1nc(C#Cc2ccccc2)c2c(N)ncnc21 [6a]"
metric = "IC50"
meas_value = 0.037


Please examine the following record next.
Record for CC(C)(C)n1nc(Cc2cccc3ccccc23)c2c(N)ncnc21 [compound 9, 1-NM-PP1] under target or system Hog1 (Saccharomyces cerevisiae, UniProt P32485, T100G): IC50 reported as 0.00947
